# method description: Biodistribution in mice bearing PC-3 xenografts
# Type: in vivo, Balb/c nu/nu mice
# settings: Balb/c nu/nu, mouse, blood, iv, 100 pmol, total radioactivity, PC-3 xenografted Balb/c nu/nu mice, iv 100 pmol; 4 h pi; mean ± SD, n = 4; read-out: Blood activity uptake
Record form. Attribute: tissue uptake at 4 h. Fill in for each entry.
# value in %ID/g; strip the unit string

Request: // lookup tissue uptake at 4 h for CC(C)C[C@H](NC(=O)C[C@H](O)[C@H](CC(C)C)NC(=O)[C@H](Cc1c[nH]cn1)NC(=O)CN(C)C(=O)[C@@H](NC(=O)[C@H](C)NC(=O)[C@](C)(Cc1c[nH]c2ccccc12)NC(=O)[C@H](CCC(N)=O)NC(=O)[C@@H](Cc1ccccc1)NC(=O)CN1CCC(NC(=O)COCCOCCNC(=O)CCC(C(=O)O)N2CCN(CC(=O)O)CCN(CC(=O)O)CCN(CC(=O)O)CC2)CC1)C(C)C)C(N)=O (some centres unmarked) [[^177Lu]Lu-PKB2, metal not drawn]
Response: 0.07

Request: Can you share its tissue uptake at 4 h? I mean this compound: CC(C)C[C@H](NC(=O)C[C@H](O)[C@H](CC(C)C)NC(=O)[C@H](Cc1c[nH]cn1)NC(=O)CN(C)C(=O)[C@@H](NC(=O)[C@H](C)NC(=O)[C@](C)(Cc1c[nH]c2ccccc12)NC(=O)[C@H](CCC(N)=O)NC(=O)[C@@H](Cc1ccccc1)NC(=O)CN1CCC(NC(=O)COCCOCCNC(=O)CN2CCN(CC(=O)O)CCN(CC(=O)O)CCN(CC(=O)O)CC2)CC1)C(C)C)C(N)=O [[^177Lu]Lu-PKB3, metal not drawn]
Response: 0.09

* * *

What tissue uptake at 4 h was measured for each of the following?
# method description: Biodistribution in mice bearing PC-3 xenografts
# Assay type: in vivo, Balb/c nu/nu mice
# settings: Balb/c nu/nu, mouse, bone, iv, 100 pmol, total radioactivity, PC-3 xenografted Balb/c nu/nu mice, iv 100 pmol; 4 h pi; mean ± SD, n = 4; read-out: Bone activity uptake
Write the number in %ID/g without appending the unit.

Request: Could you share which tissue uptake at 4 h value was measured for CC(C)C[C@H](NC(=O)C[C@H](O)[C@H](CC(C)C)NC(=O)[C@H](Cc1c[nH]cn1)NC(=O)CN(C)C(=O)[C@@H](NC(=O)[C@H](C)NC(=O)[C@](C)(Cc1c[nH]c2ccccc12)NC(=O)[C@H](CCC(N)=O)NC(=O)[C@@H](Cc1ccccc1)NC(=O)CN1CCC(NC(=O)COCCOCCNC(=O)CN2CCN(CC(=O)O)CCN(CC(=O)O)CCN(CC(=O)O)CC2)CC1)C(C)C)C(N)=O [[^177Lu]Lu-PKB3, metal not drawn] ?
Response: 0.13

Request: Give the measured tissue uptake at 4 h of CC(C)C[C@H](NC(=O)C[C@H](O)[C@H](CC(C)C)NC(=O)[C@H](Cc1c[nH]cn1)NC(=O)CN(C)C(=O)[C@@H](NC(=O)[C@H](C)NC(=O)[C@](C)(Cc1c[nH]c2ccccc12)NC(=O)[C@H](CCC(N)=O)NC(=O)[C@@H](Cc1ccccc1)NC(=O)CN1CCC(NC(=O)COCCOCCNC(=O)CCC(C(=O)O)N2CCN(CC(=O)O)CCN(CC(=O)O)CCN(CC(=O)O)CC2)CC1)C(C)C)C(N)=O (some centres unmarked) [[^177Lu]Lu-PKB2, metal not drawn] .
Response: 0.14

Cited source: paper PMC12615863
